All figures here come from BindingDB's records for doi:10.1021/jm0604777.

Task for the reader: assign each of the following compounds its reported Ki.
- study-target: Delta-type opioid receptor (Homo sapiens)
- Sequence (P41143 whole entry): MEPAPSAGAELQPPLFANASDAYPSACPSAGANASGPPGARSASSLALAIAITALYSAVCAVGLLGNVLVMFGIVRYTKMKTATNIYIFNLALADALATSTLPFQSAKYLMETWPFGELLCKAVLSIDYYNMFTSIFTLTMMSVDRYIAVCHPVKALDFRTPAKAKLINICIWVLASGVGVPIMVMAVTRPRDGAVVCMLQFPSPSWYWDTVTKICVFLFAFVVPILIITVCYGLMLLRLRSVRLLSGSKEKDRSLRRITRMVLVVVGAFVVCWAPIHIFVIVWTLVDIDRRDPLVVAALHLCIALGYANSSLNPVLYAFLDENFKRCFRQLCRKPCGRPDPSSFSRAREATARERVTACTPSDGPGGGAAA
- measurement-description: Displacement of [3H]Cl-DPDPE from human recombinant DOR expressed in CHO cells
Give the value; after it, write the unit.

Cc1ccc(CCC(=O)N[C@@]23CCC(=O)[C@@H]4Oc5c(O)ccc6c5[C@@]42CCN(C)C3C6)cc1 = 1.3 nM

Query :: Output reported Ki of the compound Cc1ccccc1/C=C/C(=O)N[C@@]12CCC(=O)[C@@H]3Oc4c(O)ccc5c4[C@@]31CCN(CC1CC1)C2C5 on Delta-type opioid receptor (Homo sapiens).
Result :: 1.3 nM
